Target: T1, EsCas13d, nuclease-dead (Eubacterium siraeum, UniProt B0MS50, R295A;H300A;R849A;H854A)
T1 sequence: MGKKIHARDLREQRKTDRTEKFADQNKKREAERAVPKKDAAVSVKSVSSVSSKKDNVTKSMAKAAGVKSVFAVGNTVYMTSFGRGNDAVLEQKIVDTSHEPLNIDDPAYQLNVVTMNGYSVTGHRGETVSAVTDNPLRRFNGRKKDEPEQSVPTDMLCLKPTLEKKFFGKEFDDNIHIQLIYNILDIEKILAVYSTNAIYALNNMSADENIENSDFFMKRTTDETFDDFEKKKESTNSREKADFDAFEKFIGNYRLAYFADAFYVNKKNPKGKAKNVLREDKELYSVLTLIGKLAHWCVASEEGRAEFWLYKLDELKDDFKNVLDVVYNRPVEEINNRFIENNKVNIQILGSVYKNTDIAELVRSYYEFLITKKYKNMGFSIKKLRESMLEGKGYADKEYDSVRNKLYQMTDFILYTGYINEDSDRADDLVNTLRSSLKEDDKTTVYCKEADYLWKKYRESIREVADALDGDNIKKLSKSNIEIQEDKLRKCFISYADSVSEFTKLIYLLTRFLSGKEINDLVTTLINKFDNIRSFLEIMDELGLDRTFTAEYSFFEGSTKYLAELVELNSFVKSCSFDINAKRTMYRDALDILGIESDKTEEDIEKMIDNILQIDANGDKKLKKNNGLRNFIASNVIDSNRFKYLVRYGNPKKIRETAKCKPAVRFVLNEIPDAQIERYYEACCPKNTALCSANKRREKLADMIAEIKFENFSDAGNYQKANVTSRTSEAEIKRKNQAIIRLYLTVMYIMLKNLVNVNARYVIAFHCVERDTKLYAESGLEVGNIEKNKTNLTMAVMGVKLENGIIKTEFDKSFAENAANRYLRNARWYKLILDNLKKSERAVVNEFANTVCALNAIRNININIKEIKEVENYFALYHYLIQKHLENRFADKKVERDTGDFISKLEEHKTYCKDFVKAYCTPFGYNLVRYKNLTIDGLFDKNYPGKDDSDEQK
Test: crRNA (strand 1, pre-loaded); Mg2+; 40 mM Tris-HCl pH 7.5, 150 mM NaCl, 6 mM MgCl2, 1 mM DTT, 0.1% Tween-20, 0.2 mg/ml BSA; 25 C; 10 min per concentration, then washed
Details: tags: His6-TwinStrep-SUMO cleaved; N-terminal SNAP kept (SNAP-Surface 488); label: 3' end held by stalled T7 RNA polymerase
Catalogue of Kd readings, one per entry.
Respond with a number, then the unit of measure.

binder="target 1 insC 3' of 11,insC 3' of 3 (mixed) RNA 1: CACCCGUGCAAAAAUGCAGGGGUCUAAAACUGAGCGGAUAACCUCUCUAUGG RNA 2: GGGAAUGGAUCCACAUCUACGAAUUCGUACCAUAGAGAGGUCUAUCCGCUCCACCGAGAUCGGAAGAGCACACGU" reportedmeasurement="0.0289 µM"

Proceed to the following item.
Kd measured on target 2 MT 5'PFS GAU 3'PFS UUC (mixed) RNA 1: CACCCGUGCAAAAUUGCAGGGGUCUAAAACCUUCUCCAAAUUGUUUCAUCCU RNA 2: GGGAAUGGAUCCACAUCUACGAAUUCGAUAGGAUGAAACAAUUUGGAGAAGUUCAGAUCGGAAGAGCACACGU = 0.028 µM
